molecular target: V. cholerae BH1651 luxOD47E, luciferase light induction, 6 h; experiment: Quorum luxo inducers, light production, v cholerae bh1651 luxod47e, confirmatory dose response (AID 624254)
Activity calls are given as the source filed them. How the calls were made is not given here.
Classes used: Yes for active, No for inactive

{"molecule": "CC(=O)Oc1ccc(-c2ccc(C(=O)O)cc2)cc1", "qualitative-label": "No"}
{"molecule": "CCC(C)n1cnc2c(=O)oc3ccccc3c21 (configuration not stated)", "qualitative-label": "Yes"}
{"molecule": "CC(C)C(NC(=O)c1ccc(S(=O)(=O)N2CCOCC2)cc1)c1nc2ccccc2[nH]1 (configuration not stated)", "qualitative-label": "Yes"}
{"molecule": "C[C@H](CO)N1C[C@H](C)[C@@H](CN(C)S(=O)(=O)c2ccccc2)Oc2c(NC(=O)Nc3ccccc3)cccc2C1=O", "qualitative-label": "Yes"}
{"molecule": "Cc1cc(=O)[nH]c(CN2CCC(c3ccccc3)CC2)n1", "qualitative-label": "Yes"}
{"molecule": "O=C(COC(=O)/C=C/c1ccccc1)NC1CCCC1", "qualitative-label": "No"}
{"molecule": "Cc1ccc(C(=O)OCC(=O)NCC(F)(F)F)cc1C", "qualitative-label": "Yes"}
{"molecule": "C[C@H]1CN([C@@H](C)CO)C(=O)c2cccc(NC(=O)Nc3ccc4c(c3)OCO4)c2O[C@@H]1CN(C)S(=O)(=O)c1ccccc1", "qualitative-label": "Yes"}
{"molecule": "Cc1ccc(-n2nnnc2SCC(=O)NCC2CCCO2)cc1C (configuration not stated)", "qualitative-label": "Yes"}
{"molecule": "CC(C)c1ccc(CNc2nnnn2C)cc1", "qualitative-label": "Yes"}
{"molecule": "O=C(Nc1nccs1)C(NS(=O)(=O)c1ccc(Br)s1)c1ccccc1 (configuration not stated)", "qualitative-label": "Yes"}
{"molecule": "CCOC(=O)CSc1nc(N)c(C#N)c(-c2cccs2)c1C#N", "qualitative-label": "Yes"}
{"molecule": "O=C(c1cc2cc(Cl)ccc2oc1=O)N1CCOCC1", "qualitative-label": "Yes"}
{"molecule": "C[C@H](CO)N1C[C@H](C)[C@@H](CN(C)S(=O)(=O)c2ccccc2)Oc2c(NC(=O)Nc3ccc(F)cc3)cccc2C1=O", "qualitative-label": "Yes"}
{"molecule": "COc1ccc(OCCOC(=O)CCS(=O)(=O)c2ccc(C)cc2)cc1", "qualitative-label": "Yes"}
{"molecule": "Cc1cccc(NC(=O)c2c(O)c3ccccc3n(C)c2=O)c1", "qualitative-label": "No"}
{"molecule": "Cc1ccc(Cn2c(SCC(C)C)nc3c2c(=O)[nH]c(=O)n3C)cc1", "qualitative-label": "Yes"}
{"molecule": "CCCS(=O)(=O)N1CCCC(C(=O)N2CCN(c3ccccc3)CC2)C1 (configuration not stated)", "qualitative-label": "Yes"}
{"molecule": "CCOc1ccc(CNC(=O)c2ccco2)cc1", "qualitative-label": "Yes"}
{"molecule": "Cc1nc2ncnn2c(C)c1Cc1c(Cl)cccc1Cl", "qualitative-label": "Yes"}
{"molecule": "O=[N+]([O-])c1ccc(N2CCOCC2)c2c1no[n+]2[O-]", "qualitative-label": "Yes"}
{"molecule": "CCc1ccc(NS(=O)(=O)c2cccs2)cc1", "qualitative-label": "Yes"}
